Source: paper PMC9482650

- Experimental target: HTRA1, Q92743
- Sequence (Q92743 360-477): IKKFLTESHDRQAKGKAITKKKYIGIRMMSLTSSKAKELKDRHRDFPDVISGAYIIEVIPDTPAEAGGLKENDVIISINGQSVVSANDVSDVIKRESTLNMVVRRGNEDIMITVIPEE
- Assay details: holdup assay
- Set-up: key: below the threshold = too weak to quantify, mostly under pKd 3.1 to 4
- Stated conditions: plain residues with an end cap or a label only (N-terminal biotin on a linker: ahx)
Observed property: pKd

# Binder, Observed property, Value
data = [
    ("SKKNELFSNL [NHERF1, O14745]", "pKd", "below the threshold"),
    ("SAPATLSSRA [PDLIM2, Q96JY6]", "pKd", "below the threshold"),
    ("PKMKLNETSF [SHKBP1, Q8TBC3]", "pKd", "below the threshold"),
]
